- subject of test: isolated FAK (Homo sapiens, UniProt Q05397)
- Sequence (Q05397 whole entry): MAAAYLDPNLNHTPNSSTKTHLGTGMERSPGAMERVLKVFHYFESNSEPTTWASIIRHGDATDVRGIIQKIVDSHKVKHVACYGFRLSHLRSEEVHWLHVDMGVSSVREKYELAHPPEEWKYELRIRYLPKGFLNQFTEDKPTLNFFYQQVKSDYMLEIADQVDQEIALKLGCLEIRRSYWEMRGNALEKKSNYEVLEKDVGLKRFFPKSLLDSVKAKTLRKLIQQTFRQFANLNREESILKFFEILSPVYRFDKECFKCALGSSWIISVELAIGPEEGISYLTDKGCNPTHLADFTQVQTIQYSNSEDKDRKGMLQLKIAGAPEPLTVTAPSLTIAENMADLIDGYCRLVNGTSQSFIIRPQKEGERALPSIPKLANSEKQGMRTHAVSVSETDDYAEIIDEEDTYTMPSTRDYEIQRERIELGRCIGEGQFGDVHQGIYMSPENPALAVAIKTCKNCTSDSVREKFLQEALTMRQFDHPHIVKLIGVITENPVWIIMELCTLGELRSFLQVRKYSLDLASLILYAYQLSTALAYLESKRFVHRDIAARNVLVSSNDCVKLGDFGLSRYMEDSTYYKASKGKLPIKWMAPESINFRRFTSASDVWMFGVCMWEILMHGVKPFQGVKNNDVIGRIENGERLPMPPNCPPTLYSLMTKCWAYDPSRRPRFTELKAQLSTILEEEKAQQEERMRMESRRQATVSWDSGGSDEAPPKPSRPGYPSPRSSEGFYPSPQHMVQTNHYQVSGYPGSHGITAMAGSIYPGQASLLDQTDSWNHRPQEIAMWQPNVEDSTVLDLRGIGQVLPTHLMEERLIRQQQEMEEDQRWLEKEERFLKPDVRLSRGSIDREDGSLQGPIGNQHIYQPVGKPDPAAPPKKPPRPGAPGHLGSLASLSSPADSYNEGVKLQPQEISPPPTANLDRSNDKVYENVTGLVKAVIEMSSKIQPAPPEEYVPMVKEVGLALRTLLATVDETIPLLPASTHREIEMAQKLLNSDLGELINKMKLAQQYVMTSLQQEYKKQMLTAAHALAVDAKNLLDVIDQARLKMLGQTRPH
- assay comment: Titration against isolated FAK
measured quantity: IC50

INSERT INTO assay_data (item_smiles, subject_of_test, result) VALUES
  ('COc1cc2c(Nc3c(Cl)ccc4c3OCO4)ncnc2cc1OCCCN1CCCCC1', 'isolated FAK (Homo sapiens, UniProt Q05397)', '> 0.5 µM');

###

- subject of test: isolated Src (Homo sapiens, UniProt P12931)
- Sequence (P12931 whole entry): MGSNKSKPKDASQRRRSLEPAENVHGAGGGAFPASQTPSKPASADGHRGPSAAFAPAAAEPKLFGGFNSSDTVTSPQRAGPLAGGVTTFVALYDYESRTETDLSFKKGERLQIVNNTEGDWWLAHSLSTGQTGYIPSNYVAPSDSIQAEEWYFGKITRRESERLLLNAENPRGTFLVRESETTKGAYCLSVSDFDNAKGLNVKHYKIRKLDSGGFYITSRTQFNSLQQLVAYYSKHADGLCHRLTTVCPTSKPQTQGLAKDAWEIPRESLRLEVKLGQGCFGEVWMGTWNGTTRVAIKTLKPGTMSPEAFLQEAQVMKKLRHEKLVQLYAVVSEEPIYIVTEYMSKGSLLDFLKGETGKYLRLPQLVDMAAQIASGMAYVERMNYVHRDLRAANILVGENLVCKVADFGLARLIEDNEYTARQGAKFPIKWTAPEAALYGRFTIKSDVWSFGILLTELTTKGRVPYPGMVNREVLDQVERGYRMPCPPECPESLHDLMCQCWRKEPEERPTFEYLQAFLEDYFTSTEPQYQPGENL
- assay comment: Titration against isolated Src
measured quantity: IC50

INSERT INTO measurements (molecule, result) VALUES
  ('COc1cc2c(Nc3c(Cl)ccc4c3OCO4)ncnc2cc1OCCCN1CCCCC1 [KX2-328]', '8 nM');
